Tested on: Vero E6 infected with SARS-CoV-2
assay.explanation: inhibition of SARS-CoV-2 cytopathic effect; higher = more antiviral protection, active = above 15
condition.label: 8.33 nM; 48 h
measurement.name: inhibition of SARS-CoV-2 cytopathic effect (%)
One number for each entry, in %.

CC(C)(c1ccc(O)cc1)c1ccc(O)cc1 :: 8.2

Go through the items and report each one's inhibition of SARS-CoV-2 cytopathic effect.
1. CC(OC(=O)OC1CCCCC1)OC(=O)C1=C(CSc2nnnn2CCN(C)C)CS[C@@H]2[C@H](NC(=O)Cc3csc(N)n3)C(=O)N12 (some centres undefined)
2. CCOC(=O)Nc1ccc2c(c1)N(C(=O)CCN1CCOCC1)c1ccccc1S2
3. CN1C(=O)c2c(nn(Cc3ccc(-c4cccc(F)n4)cc3)c2Nc2ccccc2)N2C1=N[C@@H]1CCC[C@@H]12

-- reply
1. 0.27
2. 3.43
3. 1.65

----------
Tested on: Vero E6 infected with SARS-CoV-2
assay.explanation: morphology score (similarity to uninfected cells); higher = more like uninfected cells
condition.label: 24 h
Each entry gets no (0) if its morphology score stays under -0.05, and yes (1) if its morphology score is -0.05 or above.

Example entries begin here.
CC(=O)OCC(=O)[C@@]1(O)CC[C@H]2[C@@H]3CCC4=CC(=O)CC[C@]4(C)[C@@]3(F)[C@@H](O)C[C@@]21C (10 µM) :: yes (1)
COc1cccc(-n2nc(C(=O)O)cc2-c2ccc(C3CCCCC3)c(Cl)c2)c1 (10 µM) :: yes (1)
Cc1ccc(C(=O)N(CCCN)[C@@H](c2oc3cc(Cl)ccc3c(=O)c2Cc2ccccc2)C(C)C)cc1 (0.833333 µM) :: no (0)
CCC(=O)OCC(=O)[C@@]1(OC(=O)CC)[C@@H](C)C[C@H]2[C@@H]3CCC4=CC(=O)C=C[C@]4(C)[C@@]3(Cl)[C@@H](O)C[C@@]21C [beclomethasone-dipropionate] (10 µM) :: yes (1)
CC[C@@H]1C(=O)N(C)c2cnc(Nc3ccc(C(=O)NC4CCN(C)CC4)cc3OC)nc2N1C1CCCC1 (10 µM) :: no (0)
Cc1ccc(C(=O)NCCCCCC(=O)Nc2ccccc2N)cc1 (0.833333 µM) :: no (0)

-- ask Check this molecule for morphology score at or above -0.05: CCOC(=O)[C@@]1(CCCCCCOc2ccc(Cl)cc2)CO1 [etomoxir] (10 µM)
-- reply no (0)

----------
Tested on: Vero E6 infected with SARS-CoV-2
assay.explanation: morphology score (similarity to uninfected cells); higher = more like uninfected cells
condition.label: 24 h
Exercise: state measured morphology score for each of the compounds provided.
One number for each entry.

CC(=O)N(CC(C)C(=O)O)c1c(I)cc(I)c(N)c1I (stereo not drawn) [iocetamic-acid] (10 µM) :: 0.0591
C=C(NC(=O)C(=C)NC(=O)c1csc(C2=N[C@@H]3c4csc(n4)[C@H]4NC(=O)c5csc(n5)[C@H]([C@](C)(O)[C@@H](C)O)NC(=O)[C@H]5CSC(=N5)/C(=C/C)NC(=O)[C@H]([C@@H](C)O)NC(=O)c5csc(n5)[C@]3(CC2)NC(=O)[C@H](C)NC(=O)C(=C)NC(=O)[C@H](C)NC(=O)[C@H]([C@@H](C)CC)N[C@@H]2C=Cc3c([C@H](C)O)cc(nc3[C@H]2O)C(=O)O[C@@H]4C)n1)C(N)=O [thiostrepton] (10 µM) :: 0.148

-- ask Request the reported morphology score associated with CO/N=C1\C[C@]2(C[C@@H]3C[C@@H](C/C=C(\C)C[C@@H](C)/C=C/C=C4\CO[C@@H]5[C@H](O)C(C)=C[C@@H](C(=O)O3)[C@]45O)O2)O[C@H](/C(C)=C/C(C)C)[C@H]1C [moxidectin] (10 µM)
-- reply 0.272

----------
Exercise: state measured morphology score for each of the compounds provided.
Tested on: Vero E6 infected with SARS-CoV-2
assay.explanation: morphology score (similarity to uninfected cells); higher = more like uninfected cells
condition.label: 24 h
Numbers only.

Known morphology score results, listed for orientation:
C/C(=C\C(=O)OCCCCCCCCC(=O)O)C[C@@H]1OC[C@H](C[C@@H]2O[C@H]2[C@@H](C)[C@H](C)O)[C@@H](O)[C@H]1O [mupirocin] (10 µM) :: 0.0465
CCOC(=O)Nc1ccc2c(c1)N(C(=O)CCN1CCOCC1)c1ccccc1S2 [moracizine] (10 µM) :: 0.154
Nc1nc(=O)c2c([nH]1)NCC(CNc1ccc(C(=O)N[C@@H](CCC(=O)O)C(=O)O)cc1)N2C=O (some centres undefined) [leucovorin] (10 µM) :: -0.0198

-- ask # query: morphology score | item COc1ccc(NS(=O)(=O)c2sc3ccc(Cl)cc3c2C)cc1N1CCNCC1 (10 µM) | system: Vero E6 infected with SARS-CoV-2
-- reply 0.192

----------
Tested on: Vero E6 infected with SARS-CoV-2
assay.explanation: SARS-CoV-2 infection rate relative to infected DMSO; higher = more infection, active = 60 or less
condition.label: 24 h
# output must be one of 1 for active, 0 for inactive

O=C(Nc1cccc(C(F)(F)F)c1)Nc1ccc(Br)cc1-c1nnn[nH]1 (10 µM) :: 0

-- ask In this assay, the call recorded for Cc1cccc(C)c1NC(=O)/N=C1\CCCN1C [xilobam] (10 µM) was what?
-- reply 0

-- ask Moving on to the next compound: Nc1nc(OCC2CCCCC2)c2nc[nH]c2n1 (10 µM)
-- reply 0

-- ask Moving on to the next compound: O=C(O)C1=CCCN(CCON=C(c2ccccc2)c2ccccc2)C1 (10 µM)
-- reply 0

-- ask Moving on to the next compound: CN1CC2c3ccccc3Oc3ccc(Cl)cc3C2C1 (configuration not stated) [asenapine] (10 µM)
-- reply 1

-- ask Moving on to the next compound: Cc1cc2ncc(C(=O)NCC(C)(C)NCC(=O)N3CCC[C@H]3C#N)cn2n1 [anagliptin] (10 µM)
-- reply 0

-- ask Moving on to the next compound: O=C(O)/C=C/c1ccc(O)c(O)c1 [caffeic-acid] (10 µM)
-- reply 0

-- ask Moving on to the next compound: Clc1cccc(-c2nnnn2Cc2cccnc2)c1Cl (10 µM)
-- reply 0

-- ask Moving on to the next compound: O=C(Nc1cccc2cccnc12)c1ccc(N2C(=O)[C@@H]3[C@H](C2=O)[C@@H]2C=C[C@H]3C2)cc1 [endo-IWR-1] (10 µM)
-- reply 0

-- ask Moving on to the next compound: Oc1ccc(Cl)cc1Cc1cc(Cl)ccc1O [dichlorophen] (10 µM)
-- reply 0

-- ask Moving on to the next compound: CC1(C)S[C@@H]2[C@H](NC(=O)COc3ccccc3)C(=O)N2[C@H]1C(=O)O [penicillin-v-potassium] (10 µM)
-- reply 0

-- ask Moving on to the next compound: Nc1nc(NC[C@H]2CC[C@H](CNS(=O)(=O)c3cccc4ccccc34)CC2)nc2ccccc12 (0.833333 µM)
-- reply 0

-- ask Moving on to the next compound: C[C@H](CCC(=O)NCCS(=O)(=O)O)[C@H]1CC[C@H]2[C@@H]3[C@H](O)C[C@@H]4C[C@H](O)CC[C@]4(C)[C@H]3C[C@H](O)[C@]12C [taurocholate] (10 µM)
-- reply 0

-- ask Moving on to the next compound: NNC(=O)CN1C(=O)CN=C(c2ccccc2)c2cc(Br)ccc21 [gidazepam] (10 µM)
-- reply 0

-- ask Moving on to the next compound: Cc1ccc(NC(=O)c2ccc(CN3CC[C@H](N(C)C)C3)c(C(F)(F)F)c2)cc1Nc1nccc(-c2cncnc2)n1 [bafetinib] (0.833333 µM)
-- reply 0

-- ask Moving on to the next compound: COc1cc(OC)c(C(=O)CCCCN2CCC3(CC2)NC(=O)NC3=O)cc1NS(=O)(=O)c1ccc(C(F)(F)F)cc1 (10 µM)
-- reply 0

-- ask Moving on to the next compound: O=C(CC12CC3CC(CC(C3)C1)C2)Nc1cccc2nc(NCCNCCO)ccc12 (10 µM)
-- reply 0

----------
Exercise: state measured inhibition of SARS-CoV-2 cytopathic effect for each of the molecules provided.
Test system: Vero E6 infected with SARS-CoV-2
assay.explanation: inhibition of SARS-CoV-2 cytopathic effect; higher = more antiviral protection, active = above 15
condition.label: 8.33 nM; 48 h
Numbers only, in %.

Known inhibition of SARS-CoV-2 cytopathic effect results, listed for orientation:
CC1(C)OC2(C)C(O)CC1CC2O (stereo not given) [epomediol] :: 1.77
O=C1CCC(N2C(=O)c3ccccc3C2=O)C(=O)N1 (stereo not given) [thalidomide] :: -1.38
C[C@H](Nc1ncnc2[nH]cnc12)c1nc2ccc(F)cc2c(=O)n1-c1ccccc1 [acalisib] :: -0.64
CCn1cc(C(=O)O)c(=O)c2ccc(C)nc21 [nalidixic-acid] :: 1.11

Let's switch to this molecule now.
-- ask Request the reported inhibition of SARS-CoV-2 cytopathic effect associated with O=C(CCCCCCCC(=O)NCCO)NCCO [adelmidrol]
-- reply 2.3

Values were extracted from the supplement of paper PMC13380429.
